Tested on: Staphylococcus aureus
Test: Antibacterial activity against ciprofloxacin-susceptible Staphylococcus aureus OC4172 by broth microdilution method
Assay type: functional
result type: MIC (µg/mL)

NCC(F)=C1CCN(c2c(F)cc3c(=O)c(C(=O)O)cn(C4CC4)c3c2OC(F)F)CC1: 0.06
NCC(F)=C1CCN(c2nc3c(cc2F)c(=O)c(C(=O)O)cn3C2CC2)CC1: 0.03
CC(CN)=C1CCN(c2nc3c(cc2F)c(=O)c(C(=O)O)cn3C2CC2)CC1: 0.06
CC(CN)=C1CCN(c2cc3c(cc2F)c(=O)c(C(=O)O)cn3C2CC2)CC1: 0.12
CC1COc2c(N3CCC(=C(F)CN)CC3)c(F)cc3c(=O)c(C(=O)O)cn1c23 (racemic): 0.25
COc1c(N2CCC(=C(Cl)CNC(C)C)CC2)c(F)cc2c(=O)c(C(=O)O)cn(C3CC3)c12: 0.12
NCC(Cl)=C1CCN(c2nc3c(cc2F)c(=O)c(C(=O)O)cn3C2CC2)CC1: 0.06
CCNCC(Cl)=C1CCN(c2c(F)cc3c(=O)c(C(=O)O)cn(C4CC4)c3c2OC)CC1: 0.12
COc1c(N2CCC(=C(Cl)CN(C)C)CC2)c(F)cc2c(=O)c(C(=O)O)cn(C3CC3)c12: 0.25

====

Test system: Streptococcus pneumoniae
Assay: Antibacterial activity against ciprofloxacin-resistant Streptococcus pneumoniae OC6578 clinical isolate by broth microdilution method
Format: functional
# label = true if MIC < 0.5 µg/mL else false

CC(CN)=C1CCN(c2nc3c(cc2F)c(=O)c(C(=O)O)cn3C2CC2)CC1: false
COc1c(N2CCC(=C(Cl)CNC(C)C)CC2)c(F)cc2c(=O)c(C(=O)O)cn(C3CC3)c12: false
COc1c(N2CCC(=C(C)CN)CC2)c(F)cc2c(=O)c(C(=O)O)cn(C3CC3)c12: true
C[C@H]1COc2c(N3CCC(=C(Cl)CN)CC3)c(F)cc3c(=O)c(C(=O)O)cn1c23: true
CC(CN)=C1CCN(c2cc3c(cc2F)c(=O)c(C(=O)O)cn3C2CC2)CC1: false
CC1COc2c(N3CCC(=C(F)CN)CC3)c(F)cc3c(=O)c(C(=O)O)cn1c23 (racemic): false
NCC(Cl)=C1CCN(c2c(F)cc3c(=O)c(C(=O)O)cn(C4CC4)c3c2OC(F)F)CC1: false
COc1c(N2CCC(=C(Cl)CN)CC2)c(F)cc2c(=O)c(C(=O)O)cn(C3CC3)c12: true
COc1c(N2CCC(=C(F)CN)CC2)c(F)cc2c(=O)c(C(=O)O)cn(C3CC3)c12: false
CCNCC(Cl)=C1CCN(c2c(F)cc3c(=O)c(C(=O)O)cn(C4CC4)c3c2OC)CC1: false
NCC(F)=C1CCN(c2cc3c(cc2F)c(=O)c(C(=O)O)cn3C2CC2)CC1: false
NCC=C1CCN(c2nc3c(cc2F)c(=O)c(C(=O)O)cn3C2CC2)CC1: false
COc1c(N2CCC(=C(Cl)CN(C)C)CC2)c(F)cc2c(=O)c(C(=O)O)cn(C3CC3)c12: false
CC(CN)=C1CCN(c2c(F)cc3c(=O)c(C(=O)O)cn4c3c2OCC4C)CC1 (racemic): false
NCC(Cl)=C1CCN(c2nc3c(cc2F)c(=O)c(C(=O)O)cn3C2CC2)CC1: true
NCC(F)=C1CCN(c2c(F)cc3c(=O)c(C(=O)O)cn(C4CC4)c3c2OC(F)F)CC1: false

====

System: Staphylococcus aureus
Assay: Antibacterial activity against ciprofloxacin-susceptible Staphylococcus aureus OC4172 by broth microdilution method
Format: functional
result type: MIC

C[C@H]1COc2c(N3CCC(=C(Cl)CN)CC3)c(F)cc3c(=O)c(C(=O)O)cn1c23: ≤ 0.015 µg/mL
COc1c(N2CCC(=C(Cl)CN)CC2)c(F)cc2c(=O)c(C(=O)O)cn(C3CC3)c12: ≤ 0.015 µg/mL
CNCC(Cl)=C1CCN(c2c(F)cc3c(=O)c(C(=O)O)cn(C4CC4)c3c2OC)CC1: ≤ 0.015 µg/mL

====

Reported values of MIC for individual entries
Tested on: Streptococcus pneumoniae
Experiment: Antibacterial activity against ciprofloxacin-resistant Streptococcus pneumoniae OC6578 clinical isolate by broth microdilution method
Type: functional
result type: MIC (mg/L)

CNCC(Cl)=C1CCN(c2c(F)cc3c(=O)c(C(=O)O)cn(C4CC4)c3c2OC)CC1: 0.5
NCC(F)=C1CCN(c2nc3c(cc2F)c(=O)c(C(=O)O)cn3C2CC2)CC1: 0.5
NCC(Cl)=C1CCN(c2cc3c(cc2F)c(=O)c(C(=O)O)cn3C2CC2)CC1: 0.5

# credit: ChEMBL document CHEMBL3351768
